Tested on: HEK-293T-ACE2h cells
Cond: human
Readout name: TC50 (concentration that caused 50% cells' death) (µM)

- Compound: "C=CCc1cc(-c2cc(CC=C)c3oc(=O)n(Cc4nnc(-c5ccc(OC)cc5)o4)c3c2)c2oc(=O)n(Cc3nnc(-c4ccc(OC)cc4)o3)c2c1 [6p, reference compound]"
  Unit descriptor: "µM"
  Sign: ">"
  Observed measurement: 100
- Compound: "COc1ccc2nc(-c3ccccc3)c(-c3ccccc3)nc2c1"
  Unit descriptor: "µM"
  Sign: "="
  Observed measurement: 116.03
- Compound: "COc1ccc(-c2nc3ccccc3nc2-c2ccccc2)cc1"
  Unit descriptor: "µM"
  Sign: "="
  Observed measurement: 276.90
- Compound: "N#Cc1ccc2nc(-c3ccccc3)c(-c3ccccc3)nc2c1"
  Unit descriptor: "µM"
  Sign: "="
  Observed measurement: 303.27
- Compound: "c1ccc(-c2nc3ccccc3nc2-c2ccc3ccccc3c2)cc1"
  Unit descriptor: "µM"
  Sign: ">"
  Observed measurement: 250
- Compound: "Cc1ccc(-c2nc3ccccc3nc2-c2ccccc2)cc1"
  Unit descriptor: "µM"
  Sign: "="
  Observed measurement: 271.67
- Compound: "Fc1ccc(-c2nc3ccccc3nc2-c2ccccc2)cc1"
  Unit descriptor: "µM"
  Sign: ">"
  Observed measurement: 100
